Molecular target: Mcl-1 (UniProt P97287+Q07820)
Construct: amino acid residues 152-189 of mouse Mcl-1 fused with amino acid residues 209-327 of; 8 x His (N); TEV site (N); made in house; host or cells: E. coli BL21(DE3)pLysS
Sequence (P97287 152-189 limits assumed): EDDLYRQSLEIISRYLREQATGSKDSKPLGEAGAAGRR
Sequence (Q07820 209-327 limits assumed): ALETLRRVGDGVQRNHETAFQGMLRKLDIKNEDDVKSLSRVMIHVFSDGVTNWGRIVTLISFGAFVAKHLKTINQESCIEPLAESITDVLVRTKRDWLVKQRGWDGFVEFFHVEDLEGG
Assay: Competitive fluorescence anisotropy (FA) assay, FITC-NoxaB displacement from Mcl-1
Assay type: binding
Settings: SEM; read-out: FA IC50
pIC50: −log10 of the molar value. Peptide text beside a SMILES is read from it. * marks the point of attachment. X4 = O=C(Cn1cc(-c2c(O)ccc3ccccc23)nn1)*; X1 = O=C(Cn1cc(-c2ccc(Cl)cc2Cl)nn1)*
quantity: pIC50

Answered cases to consult:
- compound: "CC(C)C[C@H](NC(=O)[C@H](CC(C)C)NC(=O)[C@H](CCCCN)NC(=O)[C@H](CCC(N)=O)NC(=O)[C@H](CCCNC(=N)N)NC(=O)[C@H](CC(C)C)NC(=O)[C@H](CC(N)=O)NC(=O)[C@@H](NC(=O)[C@H](CCCCN)NC(=O)Cn1cc(-c2c(O)ccc3ccccc23)nn1)C(C)C)C(=O)N[C@@H](CC(N)=O)C(N)=O [Compound 13] (X4-KVNLRQKLLN-NH2)"
  assayed_target: "Mcl-1 (UniProt P97287+Q07820)"
  pIC50: 5.09
- compound: "CC[C@H](C)[C@H](NC(=O)[C@H](CCCNC(=N)N)NC(=O)[C@H](CCCNC(=N)N)NC(=O)[C@H](CC(C)C)NC(=O)[C@H](CCC(N)=O)NC(=O)[C@H](C)NC(=O)[C@H](C)NC(C)=O)C(=O)NCC(=O)N[C@@H](CC(=O)O)C(=O)N[C@@H](Cc1cn(CC(=O)O)nn1)C(N)=O"
  assayed_target: "Mcl-1 (UniProt P97287+Q07820)"
  pIC50: 5.24
- compound: "CC[C@H](C)[C@H](NC(=O)[C@H](CCCNC(=N)N)NC(=O)[C@H](CCCNC(=N)N)NC(=O)[C@H](CC(C)C)NC(=O)[C@H](CCC(N)=O)NC(=O)[C@H](C)NC(=O)[C@H](C)NC(C)=O)C(=O)NCC(=O)N[C@@H](CC(=O)O)C(=O)N[C@@H](Cc1cn(Cc2ccccc2)nn1)C(N)=O"
  assayed_target: "Mcl-1 (UniProt P97287+Q07820)"
  pIC50: 6.15
- compound: "CC(C)C[C@H](NC(=O)[C@H](CC(C)C)NC(=O)[C@H](CCCCN)NC(=O)[C@H](CCC(N)=O)NC(=O)[C@H](CCCNC(=N)N)NC(=O)[C@H](CC(C)C)NC(=O)[C@H](CC(N)=O)NC(=O)[C@@H](NC(=O)[C@H](CCCCN)NC(=O)Cn1cc(-c2ccc(Cl)cc2Cl)nn1)C(C)C)C(=O)N[C@@H](CC(N)=O)C(N)=O [Compound 14] (X1-KVNLRQKLLN-NH2)"
  assayed_target: "Mcl-1 (UniProt P97287+Q07820)"
  pIC50: 5.08

A: Clc1ccc(-c2cn(Cc3ccccc3)nn2)c(Cl)c1
B: C1=C(c2cn(Cc3ccccc3)nn2)CCCC1
Query: // compare: A vs B , metric pIC50, want the smaller Write the label of whichever entry you select.
Response: A

Every entry's value here was drawn from paper PMC5577515.
